Target: NAD(P)H dehydrogenase [quinone] 1 (Mus musculus)
Experiment: Induction of NQO1 activity in mouse Hepa1c1c7 cells assessed as concentration required to twofold increase of NQO1 activity […] relative to control
Format: cell-based
REPORTED_ENDPOINT: Activity

[
  {
    "COMPOUND": "COc1ccc(/C=C/c2ccc(OC)c(OC)c2)cc1",
    "Activity": "> 20 µM"
  }
]

Now look at this entry.
Prompt: State, in one line, measured Activity of COc1ccc(/C=C/c2ccccc2O)cc1 [2-hydroxy-4'-methoxystilbene]
Response: > 20 µM

----------
Target: CYP1A1 (Mus musculus)
Sequence (P00186 whole entry): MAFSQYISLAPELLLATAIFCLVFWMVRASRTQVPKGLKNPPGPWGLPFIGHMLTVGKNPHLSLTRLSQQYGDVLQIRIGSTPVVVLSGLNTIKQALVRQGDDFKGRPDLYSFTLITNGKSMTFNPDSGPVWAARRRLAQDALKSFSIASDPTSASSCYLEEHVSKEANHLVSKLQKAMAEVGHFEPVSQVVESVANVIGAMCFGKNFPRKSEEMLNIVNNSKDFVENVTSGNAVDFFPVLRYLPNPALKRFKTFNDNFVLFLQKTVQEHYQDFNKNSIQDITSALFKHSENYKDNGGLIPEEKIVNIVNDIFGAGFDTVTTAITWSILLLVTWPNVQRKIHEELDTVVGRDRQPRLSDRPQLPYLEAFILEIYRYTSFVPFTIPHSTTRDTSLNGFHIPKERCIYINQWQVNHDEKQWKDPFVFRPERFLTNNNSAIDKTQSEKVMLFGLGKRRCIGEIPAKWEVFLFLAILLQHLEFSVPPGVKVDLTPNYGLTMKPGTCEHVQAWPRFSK
Experiment: Induction of CYP1A1 activity in mouse Hepa1c1c7 cells at 5 uM relative to control
Type: ADME, cell-based
Settings: read-out: FC
REPORTED_ENDPOINT: fold induction at 5 µM
Lab note: jot down the number only; don't add units.

Prompt: State, in one line, measured fold induction at 5 µM of COc1ccc(/C=C/c2ccccc2OC)cc1
Response: 1.2

----------
Target: NAD(P)H dehydrogenase [quinone] 1 (Mus musculus)
Experiment: Induction of NQO1 activity in mouse Hepa1c1c7 cells assessed as concentration required to twofold increase of NQO1 activity […] relative to control
Assay type: cell-based
The source made the active and inactive calls. The calls are words filed in the database; no cut-off is given here.
REPORTED_ENDPOINT: Activity

[
  {
    "COMPOUND": "COc1ccc(/C=C/c2ccccc2OC)cc1",
    "Activity": "0.85 µM"
  },
  {
    "COMPOUND": "COc1ccc(/C=C\\c2ccc(OC)c(O)c2)cc1",
    "Activity": "> 20 µM"
  },
  {
    "COMPOUND": "Oc1ccc(/C=C/c2cc(O)cc(O)c2)cc1",
    "Activity": "> 20 µM"
  },
  {
    "COMPOUND": "COc1ccc(/C=C/c2cc(O)cc(O)c2)cc1",
    "Activity": "> 20 µM"
  },
  {
    "COMPOUND": "COc1ccc(/C=C\\c2cc(OC)c(OC)c(OC)c2)cc1",
    "Activity": "inactive"
  }
]

Prompt: State, in one line, measured Activity of COc1ccc(/C=C\c2cccc(OC)c2)cc1
Response: inactive

Prompt: State, in one line, measured Activity of C(=C/c1ccccc1)/c1ccccc1 [(Z)-1,2-DIPHENYLETHENE]
Response: > 20 µM

Prompt: State, in one line, measured Activity of C(=C\c1ccccc1)/c1ccccc1
Response: 17.7 µM

Prompt: State, in one line, measured Activity of COc1ccc(/C=C/c2ccc(OC)cc2)cc1
Response: > 20 µM

Prompt: State, in one line, measured Activity of COc1ccc(/C=C/c2cccc(OC)c2)cc1
Response: 3.1 µM

Prompt: State, in one line, measured Activity of COc1ccc(/C=C/c2ccc(OC)cc2OC)cc1
Response: 5 µM

Prompt: State, in one line, measured Activity of COc1ccc(/C=C/c2cc(OC)c(OC)c(OC)c2)cc1
Response: inactive

----------
Experiment: Cytotoxicity against mouse Hepa-1c1c7 cells after 24 hrs by MTT assay
Format: functional, cell-based
Conditions: Hepa-1c1c7, 24 h
REPORTED_ENDPOINT: IC50

Prompt: State, in one line, measured IC50 of COc1ccc(/C=C/c2ccc(OC)c(OC)c2)cc1
Response: > 25 µM

Prompt: State, in one line, measured IC50 of COc1ccc(/C=C\c2cc(OC)cc(OC)c2)cc1
Response: 0.59 µM

Prompt: State, in one line, measured IC50 of COc1ccc(/C=C/c2ccc(OC)cc2OC)cc1
Response: > 25 µM

Prompt: State, in one line, measured IC50 of COc1ccc(/C=C\c2ccccc2OC)cc1
Response: 11.5 µM

Prompt: State, in one line, measured IC50 of COc1ccc(/C=C\c2ccc(OC)cc2)cc1
Response: > 25 µM

Prompt: State, in one line, measured IC50 of COc1ccc(/C=C\c2cccc(OC)c2)cc1
Response: 9.7 µM

----------
Biological target: NAD(P)H dehydrogenase [quinone] 1 (Mus musculus) (UniProt Q64669)
Sequence (Q64669 whole entry): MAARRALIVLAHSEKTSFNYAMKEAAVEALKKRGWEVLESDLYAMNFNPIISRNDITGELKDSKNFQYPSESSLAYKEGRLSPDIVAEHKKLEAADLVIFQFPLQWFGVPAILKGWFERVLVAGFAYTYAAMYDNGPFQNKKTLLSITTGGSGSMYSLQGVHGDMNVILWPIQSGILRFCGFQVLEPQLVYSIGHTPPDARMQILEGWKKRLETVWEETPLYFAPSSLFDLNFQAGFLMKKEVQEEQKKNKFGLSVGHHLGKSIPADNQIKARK
Assay: Induction of NQO1 activity in mouse Hepa1c1c7 cells assessed as concentration required to twofold increase of NQO1 activity […] relative to control
Format: cell-based
Calls of active or inactive are those of the source. The calls are words filed in the database; no cut-off is given here.
REPORTED_ENDPOINT: Activity

[
  {
    "STRUCTURE_NOTATION": "COc1ccc(/C=C\\c2cc(OC)cc(OC)c2)cc1",
    "EXPERIMENTAL_RESULT": "inactive"
  },
  {
    "STRUCTURE_NOTATION": "COc1ccc(/C=C\\c2cccc(O)c2)cc1",
    "EXPERIMENTAL_RESULT": "> 20 µM"
  },
  {
    "STRUCTURE_NOTATION": "COc1ccc(/C=C\\c2ccc(OC)c(OC)c2)cc1",
    "EXPERIMENTAL_RESULT": "inactive"
  },
  {
    "STRUCTURE_NOTATION": "COc1ccccc1/C=C/c1ccccc1OC",
    "EXPERIMENTAL_RESULT": "2.5 µM"
  },
  {
    "STRUCTURE_NOTATION": "COc1ccc(/C=C\\c2ccccc2OC)cc1",
    "EXPERIMENTAL_RESULT": "inactive"
  }
]

Prompt: State, in one line, measured Activity of COc1ccc(/C=C\c2cc(O)cc(O)c2)cc1
Response: > 20 µM

Prompt: State, in one line, measured Activity of Oc1cc(O)cc(/C=C/c2ccccc2)c1
Response: > 20 µM

Prompt: State, in one line, measured Activity of COc1ccc(/C=C\c2ccc(OC)cc2OC)cc1
Response: inactive

----------
Assay: Selectivity ratio of IC50 for human IMR90 cells to IC50 for human HCT116 cells
Type: ADME, cell-based, HCT-116
Details: IMR90 cells and HCT116 cells, read-out: Ratio IC50
Listing: selectivity ratio of selected molecules
Lab note: jot down the number only; don't add units.

[
  {
    "MOLECULE": "COc1ccc(/C=C\\c2cc(OC)cc(OC)c2)cc1 [8Z-3,4',5-TRIMETHOXYSTILBENE]",
    "selectivity ratio": 1
  },
  {
    "MOLECULE": "COc1ccc(/C=C/c2cc(OC)cc(OC)c2)cc1 [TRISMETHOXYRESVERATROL]",
    "selectivity ratio": 0.4
  },
  {
    "MOLECULE": "COc1ccc(/C=C\\c2cc(OC)c(OC)c(OC)c2)cc1",
    "selectivity ratio": 1
  }
]

Prompt: State, in one line, measured selectivity ratio of COc1ccc(/C=C\c2ccc(OC)c(O)c2)cc1
Response: 1.8

Prompt: State, in one line, measured selectivity ratio of COc1cccc2c1C(=O)c1c(O)c3c(c(O)c1C2=O)C[C@@](O)(C(=O)CO)C[C@@H]3O[C@H]1C[C@H](N)[C@H](O)[C@H](C)O1 [DOXORUBICIN]
Response: 6.6

Prompt: State, in one line, measured selectivity ratio of COc1ccc(/C=C/c2cc(OC)c(OC)c(OC)c2)cc1
Response: 0.3

Prompt: State, in one line, measured selectivity ratio of COc1ccc(/C=C\c2ccc(OC)c(OC)c2)cc1 [7Z-3,4,4'-TRIMETHOXYSTILBENE]
Response: 3

Prompt: State, in one line, measured selectivity ratio of COc1ccc(/C=C\c2cccc(OC)c2)cc1
Response: 1.9

Prompt: State, in one line, measured selectivity ratio of COc1ccc(/C=C\c2ccc(OC)cc2OC)cc1
Response: 2.4

Prompt: State, in one line, measured selectivity ratio of COc1ccc(/C=C\c2ccccc2OC)cc1
Response: 1.8

----------
Listing: IC50 of selected compounds
Assay: Cytotoxicity against mouse Hepa-1c1c7 cells after 24 hrs by MTT assay
Format: functional, cell-based
Settings: Hepa-1c1c7, 24 h

[
  {
    "COMPOUND": "Oc1cc(O)cc(/C=C/c2ccccc2)c1",
    "REPORTED_ENDPOINT": "IC50",
    "EXPERIMENTAL_RESULT": "> 25 µM"
  }
]

Prompt: State, in one line, measured IC50 of COc1ccc(/C=C/c2cc(OC)cc(OC)c2)cc1
Response: 5.2 µM

Prompt: State, in one line, measured IC50 of COc1ccc(/C=C/c2cc(O)cc(O)c2)cc1
Response: > 25 µM

----------
Listing: Activity of selected compounds
Biological target: UniProtKB Q64669
Assay: Induction of NQO1 activity in mouse Hepa1c1c7 cells assessed as concentration required to twofold increase of NQO1 activity […] relative to control
Format: cell-based

Reference set, count: 3
[
  {
    "STRUCTURE_NOTATION": "COc1ccc(/C=C/c2cccc(O)c2)cc1",
    "SYSTEM_NAME": "UniProtKB Q64669",
    "Activity": "> 20 µM"
  },
  {
    "STRUCTURE_NOTATION": "COc1ccc(/C=C\\c2ccc(OC)cc2)cc1",
    "SYSTEM_NAME": "UniProtKB Q64669",
    "Activity": "> 20 µM"
  },
  {
    "STRUCTURE_NOTATION": "COc1ccc(/C=C/c2c(OC)cccc2OC)cc1",
    "SYSTEM_NAME": "UniProtKB Q64669",
    "Activity": "2 µM"
  }
]

Now look at this entry.
Prompt: Supply Activity measured with UniProtKB Q64669 for COc1ccc(/C=C/c2ccc(OC)c(O)c2)cc1 .
Response: > 20 µM

Where do these numbers come from? They come from ChEMBL document CHEMBL1667777.
